Biological target: D3 dopamine receptor (Homo sapiens (Human), UniProt P35462)
Sequence (P35462 other isoform, or with tags, fused parts or gaps): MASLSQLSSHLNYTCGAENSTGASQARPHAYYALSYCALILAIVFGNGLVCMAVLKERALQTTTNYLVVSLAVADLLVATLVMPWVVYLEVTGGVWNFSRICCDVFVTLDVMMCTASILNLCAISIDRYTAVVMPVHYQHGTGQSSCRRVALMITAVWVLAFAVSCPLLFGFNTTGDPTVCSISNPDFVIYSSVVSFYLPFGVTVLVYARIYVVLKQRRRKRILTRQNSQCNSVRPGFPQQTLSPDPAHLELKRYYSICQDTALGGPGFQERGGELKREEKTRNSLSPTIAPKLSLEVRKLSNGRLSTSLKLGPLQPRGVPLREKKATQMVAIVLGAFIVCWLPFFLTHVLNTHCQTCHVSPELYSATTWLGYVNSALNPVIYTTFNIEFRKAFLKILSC
Experiment: Adenylyl cyclase inhibition (forskolin-induced cAMP) in AtT-20 cells stably expressing D3
Format: cell-based
Conditions: AtT-20 cells, D3; read-out: Adenylyl cyclase inhibition EC50
I'd be grateful if you could share measured pEC50 for these entries.
Interpret pEC50 as the negative base-10 log of the concentration measured in mol/L.

Query: Record request: pEC50 value, item CC(N)CCc1ccccc1Cl (centres unmarked)
Reply: 9.82

Query: I have this compound here, CCCN1CC[C@@H]2c3cc(O)ccc3CC[C@@H]21 , and I need its recorded pEC50.
Reply: 7.46

###

Target: D2L dopamine receptor (Homo sapiens (Human), UniProt P14416)
Sequence (P14416 whole entry): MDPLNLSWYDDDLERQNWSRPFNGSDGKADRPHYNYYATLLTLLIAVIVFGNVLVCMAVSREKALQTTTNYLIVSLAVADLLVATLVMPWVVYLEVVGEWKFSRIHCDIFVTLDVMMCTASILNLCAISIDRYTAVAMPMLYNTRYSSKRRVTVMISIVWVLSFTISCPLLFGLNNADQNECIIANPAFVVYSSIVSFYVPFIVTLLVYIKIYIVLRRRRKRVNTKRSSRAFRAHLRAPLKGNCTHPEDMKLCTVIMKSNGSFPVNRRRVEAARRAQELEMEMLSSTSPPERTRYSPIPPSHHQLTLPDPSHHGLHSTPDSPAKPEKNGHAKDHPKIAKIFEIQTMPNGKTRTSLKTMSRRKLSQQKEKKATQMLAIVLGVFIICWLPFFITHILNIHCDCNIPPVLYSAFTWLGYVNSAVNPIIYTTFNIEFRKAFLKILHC
Test: cell-based
Settings: AtT-20 cells, D2L; read-out: Adenylyl cyclase inhibition EC50
READOUT_KIND: pEC50
Reminder that pEC50 means the negative base-10 logarithm of the concentration expressed in mol/L.

Query: Bench note: what pEC50 did CCCN1CC[C@@H]2c3cc(O)ccc3CC[C@@H]21 [PBZI] show?
Reply: 7.17

###

Target: D2S dopamine receptor (Homo sapiens (Human), UniProt P14416)
Sequence (P14416 other isoform, or with tags, fused parts or gaps): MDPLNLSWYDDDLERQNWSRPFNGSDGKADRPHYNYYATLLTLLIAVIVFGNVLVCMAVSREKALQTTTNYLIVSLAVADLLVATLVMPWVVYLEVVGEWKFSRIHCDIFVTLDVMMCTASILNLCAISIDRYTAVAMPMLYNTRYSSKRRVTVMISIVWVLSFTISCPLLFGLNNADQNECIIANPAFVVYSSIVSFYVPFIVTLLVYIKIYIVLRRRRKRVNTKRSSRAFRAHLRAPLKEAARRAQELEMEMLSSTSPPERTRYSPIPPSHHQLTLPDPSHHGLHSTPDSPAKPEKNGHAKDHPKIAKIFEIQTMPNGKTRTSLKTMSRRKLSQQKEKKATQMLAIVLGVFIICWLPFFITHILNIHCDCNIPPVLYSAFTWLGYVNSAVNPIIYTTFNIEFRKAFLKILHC
Test: GIRK channel activation, whole cell voltage clamp, AtT-20 cells stably expressing D2S
Assay type: cell-based
Settings: AtT-20 cells
READOUT_KIND: pEC50
pEC50 here: minus log base 10 of the concentration, concentration in moles per litre.

Query: Any idea what pEC50 was measured for CCCN1CC[C@@H]2c3cc(O)ccc3CC[C@@H]21 ?
Reply: 7.28

###

Molecular target: D4.2 dopamine receptor (Homo sapiens (Human), UniProt P21917, DEL265-296)
Sequence (P21917 other isoform, or with tags, fused parts or gaps del 265-296): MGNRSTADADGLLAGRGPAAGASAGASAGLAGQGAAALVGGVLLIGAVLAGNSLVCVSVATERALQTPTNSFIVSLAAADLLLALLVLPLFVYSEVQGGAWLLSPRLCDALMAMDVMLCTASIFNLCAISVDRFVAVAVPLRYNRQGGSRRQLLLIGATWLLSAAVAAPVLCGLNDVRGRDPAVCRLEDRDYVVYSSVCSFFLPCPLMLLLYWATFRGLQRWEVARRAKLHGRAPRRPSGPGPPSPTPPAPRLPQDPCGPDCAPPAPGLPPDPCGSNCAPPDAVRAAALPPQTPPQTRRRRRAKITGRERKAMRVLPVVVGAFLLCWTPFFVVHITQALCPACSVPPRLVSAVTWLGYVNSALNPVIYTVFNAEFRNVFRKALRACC
Assay: cell-based
Settings: AtT-20 cells, D4.2; read-out: Adenylyl cyclase inhibition EC50
Experimental: The ability of the lead compound to dose-dependently decrease forskolin-induced cAMP levels is measured. The IC50 values for each receptor subtype is determined by fitting the data points using the Hill equation. AtT-20 mouse pituitary cells were grown in Ham's F10 medium with 5% FBS, 10% heat-inactivated horse serum, 2 mM glutamine and 50 μg/ml gentamicin (Invitrogen, Carlsbad, Calif.). […]
READOUT_KIND: EC50 (nM)
Answer format: numeric, nM implied, no suffix.

Query: What value of EC50 on D4.2 dopamine receptor (Homo sapiens (Human), UniProt P21917, DEL265-296) does CC(N)CCc1ccccc1Cl (stereo not shown) [ES609] have?
Reply: 0.82

###

Target: D3 dopamine receptor (Homo sapiens (Human))
Test: Adenylyl cyclase inhibition (forskolin-induced cAMP) in AtT-20 cells stably expressing D3
Type: cell-based
Settings: D3 receptors; range over both compounds and both assays; read-out: EC50 for inhibiting adenylyl cyclase and activating GIRK channels
Provide the reported EC50 of each item.

Query: What value of EC50 has been recorded for this entry: CC(N)CCc1ccccc1Cl (centres unmarked)
Reply: 0.2 to 30 nM

Query: Dear colleague, I am looking for the recorded EC50 of the following molecule: CCCN1CC[C@@H]2c3cc(O)ccc3CC[C@@H]21
Reply: 0.2 to 30 nM
